Listed here: items and their measured TGI.
- Test system: SK-MEL-2 melanoma
- Assay protocol: NCI tumour cell line growth inhibition, 48 h

# TGI of O=C(O)c1cc[c]([Hg][S]c2ncnc3nc[nH]c23)cc1 = 19.4 µM

# TGI of CNC(=S)NNc1ncnc2c1c(-c1ccc(Cl)cc1)cn2-c1ccc(C)cc1 = 27.7 µM

# TGI of COc1ccc(C2=C(Cl)C(=O)O/C2=C\c2ccc(OC)c(Br)c2)cc1Cl = 60.2 µM

# TGI of COc1ccc(C2Oc3c(OC)cc(CCCO)cc3C2CO)cc1OC (stereo not given) = > 100 µM

# TGI of C=C(C)[C@H]1CC(=O)/C(C)=C\CC/C(C)=C/CC[C@@]2(C)O[C@@H]2C1 = > 100 µM

# TGI of O=C(C(=O)c1ccc(Cc2ccc(C(=O)C(=O)c3ccccc3)cc2)cc1)c1ccccc1 = > 100 µM

# TGI of CCOC(=O)Cn1nnc2cc(Nc3c(C)[n+]([O-])c4cc(F)c(OCC)cc4[n+]3[O-])ccc21 = > 100 µM

# TGI of CC[N+]1(C)CCC(O)(c2ccc(C)cc2)C(C(=O)c2ccc(C)cc2)C1 (stereo not given) = > 100 µM

# TGI of COc1cc(OC)cc(Oc2nc3cc(F)c(F)cc3nc2-c2ccccc2)c1 = > 100 µM

# TGI of CC1=C(C(=O)NC2CCCCC2)CC(C(=O)NC2CCCCC2)=C(C)N1 = > 100 µM
